Experiment: soluble fraction after stress (log2 fold change); higher = more stays soluble; pooled small domains, quantitative proteomics
Settings: stress: pH 4
experimental endpoint: soluble fraction (log2)
Just the number, please, no unit attached.

Some solved cases for reference:
- seq text: "HMTVGEAHLEEVYLKVLKQVEEQGTALIRTTDVETGRPAAGIRRRYMRGTLPDEWVAKFEALPGWTWAPG"
  soluble fraction (log2): -0.952
- seq text: "HMHNPSYDMSKDVDILVMKFRDYNNLTDDEARFLLDKAKDAYYNTGKEILSDNEYDTLEKSLGQE"
  soluble fraction (log2): -1.17
- seq text: "HMDLDIGSVLQASRGEKKISLRQLAERTGLTASMLSQIERNLVNPSINTLKVIAAALEIPMYKFFMG"
  soluble fraction (log2): -0.583

Using the record for `HMAIKWTPEIEDEVSNKLKEKWSPEQISAWLKKNKSIMISHQRIYQFIVEDKMSGGNLYRNLRQ` , report its soluble fraction (log2).
0.172

Measured values drawn from the domain aggregation screens of Martell et al. (2025) for this set.
